Origin of the recorded values: PubChem BioAssay (NCI)

System: SNB-75 CNS
Test: NCI tumour cell line growth inhibition, 48 h
MEASURED_ATTRIBUTE: TGI (µM)

>>> print(df.to_string())
                                   molecule  measured_attribute  censoring_qualifier  quantitative_result
0  O=[N+]([O-])c1ccc(C2=Nn3c(nnc3-c3ccc(Cl)cc3)SC2)o1                 TGI                    =                   32
1  CCOC(=O)c1cc(C(=O)c2cc(OC)c(OC)c(OC)c2)n2c1ccc1ccccc12                 TGI                    =                0.617
2  COc1ccc2c(O)c(/C=C3\N=Nc4ccccc43)oc2c1C[C@@H]1CCNC[C@H]1F                 TGI                    =                 21.5
3                     N#Cc1ccc(N2CCOCC2)cc1                 TGI                    >                  100
4  COC(=O)c1ccccc1CC(Cc1ccc2c(c1)CCC2)C(=O)OC (stereo not given)                 TGI                    >                  100
5  CCN(CC)C1CCC(C2c3cc4c(cc3OC(N3CCOCC3)C2C)OCO4)CC1 (stereo not given)                 TGI                    >                  100
6  O=C(O)C(C(=O)O)P(=S)(S)c1ccccc1 (stereo not given)                 TGI                    >                  100
7  CC1(C)C2CC(O)C1CCC2=O (stereo not given)                 TGI                    >                  100
8  CCCCCCCCC/C(=N\NC(=O)c1ccncc1)c1ccc(O)c(O)c1O                 TGI                    >                  100
9  COc1ccc2c(c1)CC[C@@H]1[C@@H]2CC[C@]2(C)c3c(cc(C(=O)O)c4sccc34)C[C@@H]12                 TGI                    =                 47.9
